Values compiled from ChEMBL document CHEMBL5291721.

Assign AC50 to each entry below.
# TARGET OF ASSAY: Cannabinoid receptor 1 (Homo sapiens); further: assay procedure not described here
# Sequence (P21554 whole entry): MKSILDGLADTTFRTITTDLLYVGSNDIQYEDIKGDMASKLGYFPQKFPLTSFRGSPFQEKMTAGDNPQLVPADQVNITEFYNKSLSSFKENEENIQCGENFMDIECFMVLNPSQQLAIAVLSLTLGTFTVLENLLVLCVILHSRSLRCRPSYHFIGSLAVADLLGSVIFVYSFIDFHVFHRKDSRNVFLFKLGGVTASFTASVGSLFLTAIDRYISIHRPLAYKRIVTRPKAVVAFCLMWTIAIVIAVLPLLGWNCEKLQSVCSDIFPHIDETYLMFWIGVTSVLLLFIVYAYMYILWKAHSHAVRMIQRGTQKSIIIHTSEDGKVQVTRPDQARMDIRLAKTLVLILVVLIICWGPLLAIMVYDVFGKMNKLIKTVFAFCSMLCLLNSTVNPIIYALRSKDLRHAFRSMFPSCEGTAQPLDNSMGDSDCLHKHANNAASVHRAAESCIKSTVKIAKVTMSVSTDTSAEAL
# Format: functional, cell-based

Some solved cases for reference:
INSERT INTO measurements (compound, observed_measurement) VALUES
  ('COCCOC(=O)C1=C(C)NC(C)=C(C(=O)OC/C=C/c2ccccc2)C1c1cccc([N+](=O)[O-])c1 (centres undefined)', '> 30 µM'),
  ('CCN(CC)CC(=O)Oc1ccc(NC(C)=O)cc1', '> 30 µM'),
  ('CC(C)OC(=O)C(C(=O)OC(C)C)=C1SC=CS1 [MALOTILATE]', '> 30 µM');

CC(=N)N1CC[C@H](SC2=C(C(=O)O)N3C(=O)[C@H]([C@@H](C)O)[C@H]3C2)C1 yielded AC50 of > 300 µM
